test description: Antiproliferative activity against HUVEC assessed as growth inhibition after 24 to 72 hrs by MTS assay
Format: cell-based
study conditions: human, HUVEC cells
measured parameter: GI50 (nM)
Only the number, expressed in nM, is required.

[
  {
    "molecule": "COc1cccc2c1C(=O)c1c(O)c3c(c(O)c1C2=O)C[C@@](O)(C(=O)CO)C[C@@H]3O[C@H]1C[C@H](N)[C@H](O)[C@H](C)O1 [DOXORUBICIN]",
    "readout units": "nM",
    "value": 109
  },
  {
    "molecule": "CO[C@@H]1[C@@H](/C=C/C(C)=C/C[C@@H]2O[C@H](C)[C@H](NC(=O)/C=C\\[C@H](C)OC(=O)N3CCOCC3)C[C@@H]2C)OC(C)(C)C[C@@]12CO2",
    "readout units": "nM",
    "value": 4
  }
]

Now consider a different molecule.
The reported value for CC(=O)O[C@@H](C)/C=C\C(=O)N[C@@H]1C[C@H](C)[C@H](C/C=C(C)/C=C/[C@H]2OC(C)(C)C[C@@]3(CO3)[C@@H]2O)O[C@@H]1C in terms of GI50 is 0.06

###

System: HCT-116
test description: Antiproliferative activity against human HCT116 cells assessed as growth inhibition after 24 to 72 hrs by MTS assay
Format: functional
# reported GI50; entries follow
# unit: nM | format: bare number

[
  {
    "entry smiles": "COc1cccc2c1C(=O)c1c(O)c3c(c(O)c1C2=O)C[C@@](O)(C(=O)CO)C[C@@H]3O[C@H]1C[C@H](N)[C@H](O)[C@H](C)O1",
    "readout units": "nM",
    "value": 70
  },
  {
    "entry smiles": "CC(=O)O[C@@H](C)/C=C\\C(=O)N[C@@H]1C[C@H](C)[C@H](C/C=C(C)/C=C/[C@H]2OC(C)(C)C[C@@]3(CO3)[C@@H]2O)O[C@@H]1C",
    "readout units": "nM",
    "value": 0.07
  },
  {
    "entry smiles": "CC(=O)O[C@@H](C)/C=C\\C(=O)N[C@@H]1C[C@H](C)[C@H](C/C=C(C)/C=C/[C@H]2O[C@](C)(O)C[C@@]3(CO3)[C@@H]2O)O[C@@H]1C",
    "readout units": "nM",
    "value": 1
  }
]

Now consider a different compound.
Lab book: GI50 of CO[C@@H]1[C@@H](/C=C/C(C)=C/C[C@@H]2O[C@H](C)[C@H](NC(=O)/C=C\[C@H](C)OC(=O)N3CCOCC3)C[C@@H]2C)OC(C)(C)C[C@@]12CO2 noted as 1.4

###

test description: Toxicity in mouse assessed as tolerated dose compound treated once daily for 5 consecutive days
Assay type: organism-based
study conditions: in vivo
measured parameter: MTD at 5 days (mg/kg)
All answers are understood in mg/kg, so give the number only.

Lab book: MTD at 5 days of CC(/C=C/[C@H]1OC(C)(C)C[C@@]2(CO2)[C@@H]1O)=C\C[C@@H]1O[C@H](C)[C@H](NC(=O)/C=C\[C@H](C)OC(=O)N2CCOCC2)C[C@@H]1C noted as 0.5

###

test description: Plasma concentration in mouse at 6 mg/kg, iv after 30 mins
Format: ADME, organism-based
Parameters: dose 6 mg/kg, route intravenous
measured parameter: concentration at 0.5 h

# concentration at 0.5 h (compound: CC(/C=C/[C@H]1OC(C)(C)C[C@@]2(CO2)[C@@H]1O)=C\C[C@@H]1O[C@H](C)[C@H](NC(=O)/C=C\[C@H](C)OC(=O)N2CCOCC2)C[C@@H]1C ) is < 10 ng/mL
